B1: ZBTB22 (parent)
chain: AVLAASSPYFHDQVLLKGMTSISL

Variants of: B1
assay: protein stability index of a GFP-peptide fusion (GPS, HEK-293T) (PSI 1-6); higher = more stable;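 also: lentivirally expressed fusions sorted by FACS into six bins by GFP to DsRed ratio, PSI derived from sequencing read proportions per bin multiplied by bin number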
details: c terminus: a fixed tail appended
What protein stability index was measured for each of the following?

Y9E : 2.05
K17N : 1.43
V14Q : 1.73

The following variants each have a reported value; give each one's protein stability index.
1. K17A
2. Q13V
3. K17I

// result
1. 1.94
2. 2.02
3. 3.47

Data origin: the supplement of paper PMC10567573
